Cited source for all entries: patent US20170290876A1

Biological target: T1, human VEGF (human, UniProt P15692 207-395, biotinylated (site not stated))
T1 construct: Biotinylated human VEGF generated internally; also called hVEGF; hVEGF-biotin
T1 sequence: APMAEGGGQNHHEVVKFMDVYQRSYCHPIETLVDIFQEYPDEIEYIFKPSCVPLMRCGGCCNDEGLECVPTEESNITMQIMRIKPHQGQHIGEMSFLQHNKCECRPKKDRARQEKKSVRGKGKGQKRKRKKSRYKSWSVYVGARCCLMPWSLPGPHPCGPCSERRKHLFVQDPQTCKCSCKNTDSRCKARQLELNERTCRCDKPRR
Assay: Biacore SPR, hVEGF
measured-property: koff (s⁻¹)

binder="HC1.2T (Fab, V domains shown, Tagged heavy chain CDR variant HC1.2 with NVS4 light chain) VH: EVQLVESGGGLVQPGGSLRLSCTASGFSLTSYYYMTWVRQAPGKGLEWVGFIDPQNNPYYATWAKGRFTISRDNSKNTLYLQMNSLRAEDTAVYYCAGGDHNSGWGLDIWGQGTLVTVSS VL: EIVMTQSPSTLSASVGDRVIITCQASEIIHSWLAWYQQKPGKAPKLLIYLASTLASGVPSRFSGSGSGAEFTLTISSLQPDDFATYYCQNVYLASTNGANFGQGTKLTVLK" measured_property=koff unit_annotation=s⁻¹ reported_measurement=0.00456
binder="NVS4 heavy chain variant D108N (Fab, V domains shown, CDR variant of NVS4) VH: EVQLVESGGGLVQPGGSLRLSCTASGFSLTDYYYMTWVRQAPGKGLEWVGFIDPDDDPYYATWAKGRFTISRDNSKNTLYLQMNSLRAEDTAVYYCAGGDHNSGWGLNIWGQGTLVTVSS VL: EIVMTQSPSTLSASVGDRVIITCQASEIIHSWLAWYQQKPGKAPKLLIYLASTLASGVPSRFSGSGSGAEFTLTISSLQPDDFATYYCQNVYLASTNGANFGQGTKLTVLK" measured_property=koff unit_annotation=s⁻¹ reported_measurement=5.73e-05
binder="HC1.1T (Fab, V domains shown, Tagged heavy chain CDR variant HC1.1 with NVS4 light chain) VH: EVQLVESGGGLVQPGGSLRLSCTASGFSLTSYYYMTWVRQAPGKGLEWVGFIDPQNNPYYATWAKGRFTISRDNSKNTLYLQMNSLRAEDTAVYYCAGGDHNSGWGLNIWGQGTLVTVSS VL: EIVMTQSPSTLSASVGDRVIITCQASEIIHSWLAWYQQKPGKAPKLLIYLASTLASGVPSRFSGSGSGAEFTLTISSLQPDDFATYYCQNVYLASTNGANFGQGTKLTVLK" measured_property=koff unit_annotation=s⁻¹ reported_measurement=0.00854
binder="NVS4 light chain variant E27Q (Fab, V domains shown, CDR variant of NVS4) VH: EVQLVESGGGLVQPGGSLRLSCTASGFSLTDYYYMTWVRQAPGKGLEWVGFIDPDDDPYYATWAKGRFTISRDNSKNTLYLQMNSLRAEDTAVYYCAGGDHNSGWGLDIWGQGTLVTVSS VL: EIVMTQSPSTLSASVGDRVIITCQASQIIHSWLAWYQQKPGKAPKLLIYLASTLASGVPSRFSGSGSGAEFTLTISSLQPDDFATYYCQNVYLASTNGANFGQGTKLTVLK" measured_property=koff unit_annotation=s⁻¹ reported_measurement=1.64e-05
binder="NVS4 heavy chain variant N102K (Fab, V domains shown, CDR variant of NVS4) VH: EVQLVESGGGLVQPGGSLRLSCTASGFSLTDYYYMTWVRQAPGKGLEWVGFIDPDDDPYYATWAKGRFTISRDNSKNTLYLQMNSLRAEDTAVYYCAGGDHKSGWGLDIWGQGTLVTVSS VL: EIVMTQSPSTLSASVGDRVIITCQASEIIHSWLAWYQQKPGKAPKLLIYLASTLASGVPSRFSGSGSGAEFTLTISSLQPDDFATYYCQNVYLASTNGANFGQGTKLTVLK" measured_property=koff unit_annotation=s⁻¹ reported_measurement=4.84e-05
binder="NVS4 light chain variant S95K (Fab, V domains shown, CDR variant of NVS4) VH: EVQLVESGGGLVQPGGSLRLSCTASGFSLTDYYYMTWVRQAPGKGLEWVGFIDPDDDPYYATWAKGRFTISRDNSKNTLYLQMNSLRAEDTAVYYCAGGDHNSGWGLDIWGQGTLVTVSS VL: EIVMTQSPSTLSASVGDRVIITCQASEIIHSWLAWYQQKPGKAPKLLIYLASTLASGVPSRFSGSGSGAEFTLTISSLQPDDFATYYCQNVYLAKTNGANFGQGTKLTVLK" measured_property=koff unit_annotation=s⁻¹ reported_measurement=0.000482
binder="NVS4 heavy chain variant H101K (Fab, V domains shown, CDR variant of NVS4) VH: EVQLVESGGGLVQPGGSLRLSCTASGFSLTDYYYMTWVRQAPGKGLEWVGFIDPDDDPYYATWAKGRFTISRDNSKNTLYLQMNSLRAEDTAVYYCAGGDKNSGWGLDIWGQGTLVTVSS VL: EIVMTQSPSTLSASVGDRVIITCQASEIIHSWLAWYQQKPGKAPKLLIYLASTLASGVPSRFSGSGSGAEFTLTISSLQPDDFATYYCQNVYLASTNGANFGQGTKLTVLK" measured_property=koff unit_annotation=s⁻¹ reported_measurement=0.000773
binder="NVS4 light chain variant T53K (Fab, V domains shown, CDR variant of NVS4) VH: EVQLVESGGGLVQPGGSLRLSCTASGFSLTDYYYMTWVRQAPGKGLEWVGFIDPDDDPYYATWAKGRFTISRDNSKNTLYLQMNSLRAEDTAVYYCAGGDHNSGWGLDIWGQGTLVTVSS VL: EIVMTQSPSTLSASVGDRVIITCQASEIIHSWLAWYQQKPGKAPKLLIYLASKLASGVPSRFSGSGSGAEFTLTISSLQPDDFATYYCQNVYLASTNGANFGQGTKLTVLK" measured_property=koff unit_annotation=s⁻¹ reported_measurement=1.3e-05
binder="LC5T (Fab, V domains shown, Light chain CDR variant LC5 with tagged NVS4 heavy chain) VH: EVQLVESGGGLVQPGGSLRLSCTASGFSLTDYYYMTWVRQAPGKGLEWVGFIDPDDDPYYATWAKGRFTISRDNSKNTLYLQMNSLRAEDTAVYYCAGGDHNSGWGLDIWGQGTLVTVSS VL: EIVMTQSPSTLSASVGDRVIITCQASQIIKSWLAWYQQKPGKAPKLLIYQASTLAKGVPSRFSGSGSGAEFTLTISSLQPDDFATYYCQNVYLASTNGANFGQGTKLTVLK" measured_property=koff unit_annotation=s⁻¹ reported_measurement=0.000588
binder="NVS4 heavy chain variant D108Q (Fab, V domains shown, CDR variant of NVS4) VH: EVQLVESGGGLVQPGGSLRLSCTASGFSLTDYYYMTWVRQAPGKGLEWVGFIDPDDDPYYATWAKGRFTISRDNSKNTLYLQMNSLRAEDTAVYYCAGGDHNSGWGLQIWGQGTLVTVSS VL: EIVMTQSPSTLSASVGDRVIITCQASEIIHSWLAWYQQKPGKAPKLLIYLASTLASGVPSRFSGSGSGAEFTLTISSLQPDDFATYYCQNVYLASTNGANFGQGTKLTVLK" measured_property=koff unit_annotation=s⁻¹ reported_measurement=4.54e-05
